Reference source for all entries: the supplement of paper PMC4206461

# Test system: Pseudomonas aeruginosa PA14 wild type
# ASSAY_EXPLANATION: respiration area under curve with compound as sole nitrogen source, 24 h (OmniLog AUC (arbitrary units)); higher = more respiration / better utilisation as nitrogen source, active = 2000 or more
Write down one outcome, taken from active, inactive

Record lookup: outcome of this test for CSCC[C@H](NC(=O)[C@@H](N)Cc1ccccc1)C(=O)O (plate: PM8) ?
inactive

====

# System: Pseudomonas aeruginosa PA14 wild type
# ASSAY_EXPLANATION: respiration area under curve with compound as sole nitrogen source, 24 h (OmniLog AUC (arbitrary units)); higher = more respiration / better utilisation as nitrogen source, active = 2000 or more
Each entry below carries its reported respiration area under curve.
# answer = number (no unit)

Reference set (4 entries):
NC(=O)C[C@H](NC(=O)[C@@H](N)CO)C(=O)O (plate: PM8) : 12500
C[C@H](NC(=O)[C@@H](N)CCC(=O)O)C(=O)O (plate: PM8) : 9190
CC[C@H](C)[C@H](N)C(=O)N[C@@H](CCCN=C(N)N)C(=O)O (plate: PM6) : 9480
CC(C)[C@H](NC(=O)[C@@H](N)CC(=O)O)C(=O)O (plate: PM6) : 4290

Look up respiration area under curve: CC(C)CC(N)C(=O)NC(Cc1c[nH]c2ccccc12)C(=O)O (centres undefined) (plate: PM7)
8750

Look up respiration area under curve: C[C@@H](O)[C@H](N)C(=O)N[C@@H](CCCN=C(N)N)C(=O)O (plate: PM7)
15400

Look up respiration area under curve: NCC(=O)N[C@@H](CC(=O)O)C(=O)O (plate: PM8)
5610

Look up respiration area under curve: CC[C@H](C)[C@H](N)C(=O)N[C@H](C(=O)O)C(C)C (plate: PM6)
6570

Look up respiration area under curve: N[C@@H](Cc1c[nH]c2ccccc12)C(=O)N[C@@H](Cc1c[nH]c2ccccc12)C(=O)O (plate: PM7)
1430

Look up respiration area under curve: CC(C)[C@H](NC(=O)[C@H](C)N)C(=O)O (plate: PM8)
9240

Look up respiration area under curve: CC(C)[C@H](NC(=O)[C@@H](N)CCC(=O)O)C(=O)O (plate: PM6)
5390

Look up respiration area under curve: NC(N)=NCCC[C@H](N)C(=O)N[C@@H](Cc1ccc(O)cc1)C(=O)O (plate: PM6)
9840

Look up respiration area under curve: C[C@@H](O)[C@H](N)C(=O)N[C@@H](CCC(N)=O)C(=O)O (plate: PM8)
12100

====

Each entry below carries its reported respiration area under curve.
# Tested on: Pseudomonas aeruginosa PA14 wild type
# ASSAY_EXPLANATION: respiration area under curve with compound as sole nitrogen source, 24 h (OmniLog AUC (arbitrary units)); higher = more respiration / better utilisation as nitrogen source, active = 2000 or more
# answer = number (no unit)

C[C@@H](O)[C@H](NC(=O)CN)C(=O)O (plate: PM6) : 5430
CC(C)C[C@H](N)C(=O)NCC(=O)NCC(=O)O (plate: PM8) : 10400
CSCC[C@H](N)C(=O)N[C@@H](Cc1c[nH]c2ccccc12)C(=O)O (plate: PM7) : 3640
N[C@@H](CO)C(=O)N[C@@H](Cc1ccc(O)cc1)C(=O)O (plate: PM7) : 6130
C[C@H](N)C(=O)N[C@@H](C)C(=O)N[C@@H](C)C(=O)O (plate: PM8) : 10400
NC(CO)C(=O)NC(CCC(=O)O)C(=O)O (stereo not given) (plate: PM8) : 5470
NC(=O)CC[C@H](NC(=O)[C@@H](N)CCC(N)=O)C(=O)O (plate: PM6) : 8430
CC(C)[C@H](NC(=O)[C@@H](N)CC(N)=O)C(=O)O (plate: PM6) : 7030
NCC(=O)N[C@@H](CCCN=C(N)N)C(=O)O (plate: PM6) : 8640

Look up respiration area under curve: CC[C@H](C)[C@H](NC(=O)[C@@H]1CCCN1)C(=O)O (plate: PM8)
7540

====

# Tested on: Pseudomonas aeruginosa PA14 dppBCDF deletion mutant
# ASSAY_EXPLANATION: respiration area under curve with compound as sole nitrogen source, 24 h (OmniLog AUC (arbitrary units)); higher = more respiration / better utilisation as nitrogen source, active = 2000 or more; extreme values may be limits of the assay
ASSAY_READOUT: respiration area under curve
# answer = number (no unit)

Reference set (5 entries):
CC[C@H](C)[C@H](NC(=O)CNC(=O)CN)C(=O)O (plate: PM8) : 1
CC(C)C[C@H](NC(=O)[C@@H](N)Cc1ccc(O)cc1)C(=O)O (plate: PM7) : 5310
CC[C@H](C)[C@H](NC(=O)[C@@H](N)C(C)C)C(=O)O (plate: PM7) : 842
NCC(=O)N[C@@H](Cc1ccccc1)C(=O)O (plate: PM6) : 350
CC(C)C[C@H](NC(=O)[C@@H](N)CC(C)C)C(=O)O (plate: PM6) : 1380

Query the reported respiration area under curve for Pseudomonas aeruginosa PA14 dppBCDF deletion mutant; item: N[C@@H](Cc1ccccc1)C(=O)N[C@@H](CC(=O)O)C(=O)O (plate: PM8)
0

Query the reported respiration area under curve for Pseudomonas aeruginosa PA14 dppBCDF deletion mutant; item: NCC(=O)N[C@@H](CCCN=C(N)N)C(=O)O (plate: PM6)
7970

Query the reported respiration area under curve for Pseudomonas aeruginosa PA14 dppBCDF deletion mutant; item: N[C@@H](Cc1ccc(O)cc1)C(=O)N[C@@H](Cc1ccccc1)C(=O)O (plate: PM7)
3450

Query the reported respiration area under curve for Pseudomonas aeruginosa PA14 dppBCDF deletion mutant; item: N[C@@H](Cc1ccc(O)cc1)C(=O)NCC(=O)O (plate: PM7)
3760

====

# System: Pseudomonas aeruginosa PA14 wild type
# ASSAY_EXPLANATION: respiration area under curve with compound as sole nitrogen source, 24 h (OmniLog AUC (arbitrary units)); higher = more respiration / better utilisation as nitrogen source, active = 2000 or more
ASSAY_READOUT: respiration area under curve
# answer = number (no unit)

Reference set (3 entries):
C[C@@H](NC(=O)CN)C(=O)O (plate: PM8) : 5060
N[C@@H](Cc1ccccc1)C(=O)NCC(=O)O (plate: PM7) : 7630
NC(N)=NCCC[C@H](N)C(=O)N[C@@H](Cc1c[nH]c2ccccc12)C(=O)O (plate: PM6) : 8730

Now for the compound whose respiration area under curve we want.
Look up respiration area under curve: CC(C)C[C@H](N)C(=O)N[C@@H](Cc1ccccc1)C(=O)O (plate: PM6)
6750

====

Each entry below carries its reported respiration area under curve.
# Test system: Pseudomonas aeruginosa PA14 wild type
# ASSAY_EXPLANATION: respiration area under curve with compound as sole nitrogen source, 24 h (OmniLog AUC (arbitrary units)); higher = more respiration / better utilisation as nitrogen source, active = 2000 or more
# answer = number (no unit)

Reference set (4 entries):
N[C@@H](Cc1ccc(O)cc1)C(=O)NCC(=O)O (plate: PM7) : 9630
NCC(=O)NCC(=O)N[C@@H](Cc1ccccc1)C(=O)O (plate: PM8) : 9740
N[C@@H](Cc1c[nH]c2ccccc12)C(=O)NCC(=O)O (plate: PM7) : 3340
CC(C)[C@H](N)C(=O)N1CCC[C@H]1C(=O)O (plate: PM8) : 12700

Look up respiration area under curve: O=C(O)CC(NC(=O)C1CCCN1)C(=O)O (stereo not given) (plate: PM7)
4460

====

# Tested on: Pseudomonas aeruginosa PA14 wild type
# ASSAY_EXPLANATION: respiration area under curve with compound as sole nitrogen source, 24 h (OmniLog AUC (arbitrary units)); higher = more respiration / better utilisation as nitrogen source, active = 2000 or more
ASSAY_READOUT: respiration area under curve
# answer = number (no unit)

CSCC[C@H](N)C(=O)N[C@H](C(=O)O)C(C)C (plate: PM7) : 4480
NCC(=O)NCC(=O)O (plate: PM6) : 3270
CC[C@H](C)[C@H](N)C(=O)N1CCC[C@H]1C(=O)O (plate: PM6) : 7460

Now for the compound whose respiration area under curve we want.
Look up respiration area under curve: CC(C)[C@H](N)C(=O)N[C@@H](C)C(=O)O (plate: PM8)
6590

====

Each entry below carries its reported respiration area under curve.
# Test system: Pseudomonas aeruginosa PA14 wild type
# ASSAY_EXPLANATION: respiration area under curve with compound as sole nitrogen source, 24 h (OmniLog AUC (arbitrary units)); higher = more respiration / better utilisation as nitrogen source, active = 2000 or more
# answer = number (no unit)

Reference set (6 entries):
C[C@@H](O)[C@H](N)C(=O)NCC(=O)O (plate: PM7) : 8140
CC(C)C[C@H](NC(=O)[C@@H](N)CO)C(=O)O (plate: PM7) : 7960
N[C@@H](Cc1ccc(O)cc1)C(=O)N[C@@H](Cc1c[nH]c2ccccc12)C(=O)O (plate: PM7) : 3280
C[C@H](O)[C@@H](NC(=O)CN)C(=O)O (plate: PM8) : 0
N[C@@H](Cc1ccccc1)C(=O)N1CCC[C@H]1C(=O)O (plate: PM7) : 11400
N[C@@H](Cc1c[nH]c2ccccc12)C(=O)N[C@@H](Cc1ccc(O)cc1)C(=O)O (plate: PM7) : 1070

Look up respiration area under curve: NC(=O)CC[C@H](NC(=O)[C@@H](N)CCCN=C(N)N)C(=O)O (plate: PM6)
9850

Look up respiration area under curve: CSCC[C@H](NC(=O)[C@@H](N)[C@@H](C)O)C(=O)O (plate: PM7)
4960

Look up respiration area under curve: C[C@H](N)C(=O)N[C@@H](CCC(N)=O)C(=O)O (plate: PM8)
11600

Look up respiration area under curve: N[C@@H](CC(=O)O)C(=O)N[C@@H](CCC(=O)O)C(=O)O (plate: PM6)
291

Look up respiration area under curve: NC(Cc1c[nH]c2ccccc12)C(=O)NC(Cc1ccccc1)C(=O)O (stereo unspecified) (plate: PM7)
547
